Data credit: patent US20260297105A1

Provide the reported IC50 of each item.
Molecular target: MEK1 (Homo sapiens)
Construct: purchased SignalChem M02-14H
Sequence (Q02750 whole entry): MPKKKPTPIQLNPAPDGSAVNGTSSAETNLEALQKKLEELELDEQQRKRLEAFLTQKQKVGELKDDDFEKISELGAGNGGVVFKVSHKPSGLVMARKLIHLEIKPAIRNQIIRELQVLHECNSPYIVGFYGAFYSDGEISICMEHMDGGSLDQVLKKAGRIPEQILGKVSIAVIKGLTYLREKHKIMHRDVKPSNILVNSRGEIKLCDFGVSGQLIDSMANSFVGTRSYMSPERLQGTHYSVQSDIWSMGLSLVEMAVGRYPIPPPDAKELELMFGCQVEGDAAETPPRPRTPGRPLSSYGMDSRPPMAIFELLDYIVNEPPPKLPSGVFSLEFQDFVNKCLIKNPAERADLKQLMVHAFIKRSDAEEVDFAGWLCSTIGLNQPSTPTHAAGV
Sequence (P15056 445-723 partner limits assumed): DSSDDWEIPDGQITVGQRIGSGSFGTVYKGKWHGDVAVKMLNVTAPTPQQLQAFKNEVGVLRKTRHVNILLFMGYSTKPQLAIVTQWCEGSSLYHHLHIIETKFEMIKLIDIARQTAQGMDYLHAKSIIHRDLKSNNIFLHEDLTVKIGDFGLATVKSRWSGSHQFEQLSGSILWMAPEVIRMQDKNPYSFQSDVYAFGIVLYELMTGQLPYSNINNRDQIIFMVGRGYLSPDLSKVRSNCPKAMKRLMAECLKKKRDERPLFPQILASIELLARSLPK
Assay: MEK1 kinase cascade assay (ADP-Glo), inhibition of MEK1 kinase activity
Assay type: biochemical
Settings: 25 nM BRAF, 6.25 nM MEK1, 0.5 μM ERK, 1 mM ATP; 20 min preincubation, 1 hr at 25° C.; read-out: BRAF ADP Glo kinase assay V3 (IC50)

Recorded IC50 of `CNS(=O)(=O)Nc1cccc(CN2C(=O)Oc3cc(Oc4cccnn4)cc(F)c3C23COC3)c1F` , please. 5 to 50 nM

Recorded IC50 of `O=C1Oc2c(ccc(Oc3ncco3)c2F)C2(CCC2)N1Cc1ccnc(NS(=O)(=O)C2CC2)c1F` , please. 50 to 500 nM

Recorded IC50 of COC1CCN(S(=O)(=O)Nc2cccc(CN3Cc4ccc(OC(=O)N(C)C)cc4OC3=O)c2F)C1 (stereo not shown) , please. 5 to 50 nM

Recorded IC50 of `CNS(=O)(=O)Nc1cccc(CN2C(=O)Oc3cc(Oc4cccnn4)ccc3C23CCC3)c1F` , please. < 5 nM

Recorded IC50 of `CNS(=O)(=O)Nc1cccc(CN2C(=O)Oc3c(ccc(Oc4ncccn4)c3F)C23COC3)c1F` , please. > 500 nM

Recorded IC50 of C[C@H]1c2ccc(Oc3cccnn3)c(F)c2OC(=O)N1Cc1cccc(NS(=O)(=O)N(C)C)c1F (single isomer, unassigned) , please. < 5 nM

Recorded IC50 of `CN(C)S(=O)(=O)Nc1cccc(CN2C(=O)Oc3c(ccc(Oc4cccnn4)c3F)C23COC3)c1F` , please. 5 to 50 nM

Recorded IC50 of `CNS(=O)(=O)Nc1cccc(CN2Cc3c(F)cc(Oc4ncccn4)cc3OC2=O)c1F` , please. 5 to 50 nM

Recorded IC50 of `CNS(=O)(=O)Nc1nccc(CN2C(=O)Oc3cc(Oc4ncc(C)o4)ccc3C23CCC3)c1F` , please. 5 to 50 nM

Recorded IC50 of CNS(=O)(=O)Nc1cccc(CN2C(=O)Oc3c(ccc(Oc4ncco4)c3F)[C@@H]2C)c1F (single isomer, unassigned) , please. < 5 nM

Recorded IC50 of CNS(=O)(=O)Nc1cccc(CN2C(=O)Oc3cc(Oc4ncco4)cnc3[C@H]2C)c1F (stereo in doubt) , please. 50 to 500 nM

Recorded IC50 of C[C@@H]1c2c(F)cc(Oc3cccnn3)cc2OC(=O)N1Cc1cccc(NS(=O)(=O)C2CC2)c1F (single isomer, unassigned) , please. 50 to 500 nM

Recorded IC50 of `CNS(=O)(=O)Nc1cccc(CN2C(=O)Oc3cc(Oc4ncco4)ccc3C2(C)C)c1F` , please. 5 to 50 nM

Recorded IC50 of `CN(C)S(=O)(=O)Nc1nccc(CN2C(=O)Oc3cc(Oc4cccnn4)ccc3C23CCC3)c1F` , please. 5 to 50 nM

Recorded IC50 of `CNS(=O)(=O)Nc1cccc(CN2C(=O)Oc3cc(Oc4cccnn4)ccc3C23COC3)c1F` , please. < 5 nM

Recorded IC50 of `CNS(=O)(=O)Nc1cccc(CN2C(=O)Oc3cc(OC(=O)N(C)C)ccc3C23CNC3)c1F` , please. 5 to 50 nM

====

Test system: BRAF-MEK1
Assay: BRAF-MEK TR-FRET assay, stabilization of MEK1 and BRAF interaction
Format: binding
Settings: 4 nM BRAF, 10 nM MEK, 100 μM ATP; 1 hr at 25° C.; read-out: BRAF-MEK TR-FRET Assay (EC50, fold stabilization)
reportedMetric: EC50

Recorded EC50 of `CNS(=O)(=O)Nc1nccc(CN2C(=O)Oc3cc(Oc4cccnn4)cc(F)c3C23COC3)c1F` , please. 200 to 1000 nM

Recorded EC50 of `CNS(=O)(=O)Nc1nccc(CN2C(=O)Oc3cc(Oc4ncco4)ccc3C23COC3)c1F` , please. 50 to 200 nM

Recorded EC50 of `CN(C)S(=O)(=O)Nc1cccc(CN2C(=O)Oc3c(ccc(Oc4cccnn4)c3F)C23COC3)c1F` , please. 50 to 200 nM

Recorded EC50 of `CN(C)S(=O)(=O)Nc1cccc(CN2C(=O)Oc3cc(Oc4cccnn4)ccc3C23COC3)c1F` , please. 50 to 200 nM

Recorded EC50 of `CNS(=O)(=O)Nc1cccc(CN2Cc3c(F)cc(Oc4ncccn4)cc3OC2=O)c1F` , please. 200 to 1000 nM

Recorded EC50 of `O=C1Oc2cc(Oc3cccnn3)ccc2C2(CCC2)N1Cc1ccnc(NS(=O)(=O)C2CC2)c1F` , please. 200 to 1000 nM

Recorded EC50 of CNS(=O)(=O)Nc1cccc(CN2C(=O)Oc3c(ccc(Oc4ncco4)c3F)[C@@H]2C)c1F (single isomer, unassigned) , please. 200 to 1000 nM

Recorded EC50 of `CNS(=O)(=O)Nc1cc(F)cc(CN2C(=O)Oc3cc(Oc4cccnn4)ccc3C23CCC3)c1F` , please. 50 to 200 nM

Recorded EC50 of CNS(=O)(=O)Nc1cccc(CN2C(=O)Oc3cc(Oc4cccnn4)ccc3[C@H]2C)c1F (single isomer, unassigned) , please. 200 to 1000 nM

Recorded EC50 of `CNS(=O)(=O)Nc1nccc(CN2Cc3ccc(Oc4nccnn4)cc3OC2=O)c1F` , please. < 50 nM

Recorded EC50 of `O=C1Oc2c(ccc(Oc3cccnn3)c2F)C2(CCC2)N1Cc1ccnc(NS(=O)(=O)C2CC2)c1F` , please. 50 to 200 nM

Recorded EC50 of `CN(C)C(=O)Oc1cc(F)c2c(c1)OC(=O)N(Cc1cccc(NS(=O)(=O)C3CC3)c1F)C2` , please. 50 to 200 nM

Recorded EC50 of `CNS(=O)(=O)Nc1cccc(CN2C(=O)Oc3cc(OC(=O)N(C)C)ccc3C23CN(C)C3)c1F` , please. 200 to 1000 nM

Recorded EC50 of `CNS(=O)(=O)Nc1cccc(CN2C(=O)Oc3cc(Oc4cccnn4)cc(F)c3C23COC3)c1F` , please. 50 to 200 nM

Recorded EC50 of `CN(C)S(=O)(=O)Nc1cccc(CN2C(=O)Oc3cc(Oc4cccnn4)ccc3C2(C)C)c1F` , please. 200 to 1000 nM

Recorded EC50 of `CNS(=O)(=O)Nc1nccc(CN2C(=O)Oc3cc(Oc4cccnn4)cc(F)c3C23CCC3)c1F` , please. < 50 nM

Recorded EC50 of `CNS(=O)(=O)Nc1cccc(CN2Cc3ccc(OC(=O)N(C)C)cc3OC2=O)c1F` , please. 200 to 1000 nM

Recorded EC50 of `CN(C)S(=O)(=O)Nc1cccc(CN2Cc3ccc(Oc4cccnn4)cc3OC2=O)c1F` , please. 50 to 200 nM
